The variants listed here are annotated with their self-cleavage kobs at 2500 uM GlcN6P.
B1: glmS ribozyme (parent)
chain: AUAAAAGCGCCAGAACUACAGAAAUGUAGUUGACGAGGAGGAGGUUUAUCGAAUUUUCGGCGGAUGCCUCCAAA

- Variants of: B1
- protocolDescription: self-cleavage kobs at 2500 uM GlcN6P; higher = faster cleavage; RNA array
- assayContext: with glucosamine-6-phosphate
Fewer inactive variants are shown than the library holds.

Example variants with recorded self-cleavage kobs at 2500 uM GlcN6P:
entrysequence="AUAAAAGCACCAGAACUACAGAAAUGUAGUUGACGAGGAGGAGGUUUAACGAAUUUUCGGCGGAUGCCUCCAAA [G9A U49A]" measurement="< 1e-05 s⁻¹"
entrysequence="AUAAAAGCGCCAGAACUACAGAAAUGUAGUUCACGAGGAGGAGGUUUAUCGCAUUUUCGGCGGAUGCCUCCAAA [G32C A52C]" measurement="< 1e-05 s⁻¹"

Entry under test: AUAAAAGCGCCAGAACUACAGAAAUGUAGUUGACCUGGAGGAGGUUUAUCGAAUUUUUGGCGGAUGCCUCCAAA [G35C A36U C58U] . Its self-cleavage kobs at 2500 uM GlcN6P was < 1e-05 s⁻¹

Entry under test: AUAAAAGCGCCAGAACUACAGAAAUGUAGUUGACGAAGAGGAGGUUUAUCGAAUUUUCGGCCGUUGCCUCCAAA [G37A G62C A64U] . Its self-cleavage kobs at 2500 uM GlcN6P was < 1e-05 s⁻¹

This collection of values is drawn from the supplement of paper PMC7125110.
